target: Serine/threonine-protein kinase PAK 2 (Homo sapiens) (UniProt Q13177); conditions: at 1 µM;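 further: reported values are mean inhibition of PAK2, averaged over measurements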
Sequence (Q13177 whole entry): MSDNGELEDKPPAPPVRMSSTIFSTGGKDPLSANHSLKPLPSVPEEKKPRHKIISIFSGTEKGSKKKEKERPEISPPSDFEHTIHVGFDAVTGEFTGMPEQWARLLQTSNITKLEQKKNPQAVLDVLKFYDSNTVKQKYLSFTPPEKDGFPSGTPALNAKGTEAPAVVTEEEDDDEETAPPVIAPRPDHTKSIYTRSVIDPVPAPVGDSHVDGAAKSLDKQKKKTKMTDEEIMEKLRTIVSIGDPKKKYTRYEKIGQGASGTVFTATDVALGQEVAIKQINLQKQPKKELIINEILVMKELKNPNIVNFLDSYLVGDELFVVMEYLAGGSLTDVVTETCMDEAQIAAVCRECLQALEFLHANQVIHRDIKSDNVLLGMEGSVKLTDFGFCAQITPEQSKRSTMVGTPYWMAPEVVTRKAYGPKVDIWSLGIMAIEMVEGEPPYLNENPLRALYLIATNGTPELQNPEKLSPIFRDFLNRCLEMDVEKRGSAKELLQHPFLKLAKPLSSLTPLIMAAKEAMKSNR
endpoint name: inhibition (%)

[[record]]
compound = "NC(=O)c1ccc(-c2nc(-c3ccccn3)c(-c3ccc4c(c3)OCO4)[nH]2)cc1"
result = 1.08

[[record]]
compound = "COc1ccc(-c2nn3ncccc3c2-c2ccnc(Nc3ccc(Cl)c(C(F)(F)F)c3)n2)cc1"
result = 0.63

[[record]]
compound = "Nc1ncnc2occ(-c3ccc(NC(=O)Nc4cccc(C(F)(F)F)c4)cc3)c12"
result = 1.5

[[record]]
compound = "CCN1CCC(CC(=O)Nc2n[nH]c3nc(-c4cccs4)c(Br)cc23)CC1"
result = -2.2

[[record]]
compound = "O=C1NC(=O)C(c2cccc(Cl)c2)=C1Nc1ccc(O)c(Cl)c1"
result = -0.45

[[record]]
compound = "COc1cc2ncn(-c3cc(OCc4ccccc4C(F)(F)F)c(C(N)=O)s3)c2cc1OC"
result = 1.77

[[record]]
compound = "CS(=O)(=O)Nc1ccc(N/C=C2\\C(=O)Nc3ccccc32)cc1"
result = -3.37

[[record]]
compound = "CCc1cccc(NC(=O)Nc2ccc(Oc3ccc4nc(NC(=O)OC)[nH]c4c3)cc2)c1"
result = 0.26

[[record]]
compound = "O=C1NC(=O)C(c2ccc(Cl)cc2)=C1Nc1ccc(Cl)c(C(=O)O)c1"
result = -1.88

[[record]]
compound = "CS(=O)(=O)CCNCc1nc(-c2ccc3ncnc(Nc4ccc(F)c(Cl)c4)c3c2)cs1"
result = 1.25

[[record]]
compound = "Cn1cc(C=C2C(=O)Nc3cccnc32)c2ccccc21"
result = 0.31

[[record]]
compound = "COc1cc2ncn(-c3cc(O[C@@H](C)c4ccccc4Cl)c(C(N)=O)s3)c2cc1OC"
result = 2.93

[[record]]
compound = "CC1=C(C(=O)Nc2ccc3[nH]ncc3c2)C(c2ccc(F)cc2)NC(=O)N1 (stereo unspecified)"
result = -0.03

[[record]]
compound = "CCn1c(-c2nonc2N)nc2ccncc21"
result = 1.82

[[record]]
compound = "CCn1c(-c2nonc2N)nc2cnc(Oc3cccc(NC(=O)c4ccc(OCCN5CCOCC5)cc4)c3)cc21"
result = 0.34

[[record]]
compound = "CCn1c(-c2nonc2N)nc2c(C#CC(C)(C)O)nc(CN3CCCC3)cc21"
result = -0.92

[[record]]
compound = "Cc1ccc(C(=O)NC2CCCCC2)cc1-c1ccc(C(=O)NCC2CC2)cc1"
result = 1.97

[[record]]
compound = "Fc1cccc(COc2ccc(Nc3ncnc4sc(-c5cccs5)cc34)cc2Cl)c1"
result = -1.1

[[record]]
compound = "CCn1c(-c2nonc2N)nc2c(C#CC(C)(C)O)nc(OC[C@@H](N)c3ccccc3)cc21"
result = 36.3

[[record]]
compound = "Cc1cccc(-c2n[nH]cc2-c2ccc3ncccc3n2)n1"
result = -0.91

[[record]]
compound = "CC(C)=Cc1cccc2c1/C(=N/Nc1ccc(S(N)(=O)=O)cc1)C(=O)N2"
result = 1.15

